The measurements presented in this section are drawn from BindingDB's records for doi:10.1016/j.ejmech.2018.07.023.

assay: Inhibition of recombinant rat Gi coupled mGlu2 receptor expressed in CHO cells assessed as suppression of L-glutamate-induced decrease in cAMP level pretreated for 1 hr followed by L-glutamate/forskolin addition and measured after 30 mins by FRET assay
pIC50: −log10 of the molar value.
parameter: pIC50

[ask] So what does the record say about pIC50 for C=C1C(=O)N[C@@H](C)C(=O)N(C)[C@@H](C)C(=O)N[C@@H]([C@H](OC(=O)[C@@H](NC(C)=O)[C@H](O)C(C)C)C(C)C)C(=O)N(C)[C@@H]([C@@H](C)OC)C(=O)O[C@H](C)[C@H](NC(C)=O)C(=O)O[C@H](CC(C)C)C(=O)N1C ?
[reply] < 4.00

[ask] Entry C=C1C(=O)N[C@@H](C)C(=O)N(C)[C@@H](C)C(=O)N[C@@H]([C@H](OC(=O)[C@@H](NC(=O)CCCCC)[C@H](O)C(C)C)C(C)C)C(=O)N(C)[C@@H]([C@@H](C)OC)C(=O)O[C@H](C)[C@H](NC(C)=O)C(=O)O[C@H](Cc2ccccc2)C(=O)N1C has what pIC50?
[reply] < 4.30

[ask] For C=C1C(=O)N[C@@H](C)C(=O)N(C)[C@@H](C)C(=O)N[C@@H]([C@H](OC(=O)[C@@H](NC(C)=O)[C@H](O)C(C)C)C(C)C)C(=O)N(C)[C@@H]([C@@H](C)OC)C(=O)OC[C@H](NC(C)=O)C(=O)O[C@H](Cc2ccccc2)C(=O)N1C , what is its reported pIC50?
[reply] < 4.30

[ask] Give the measured pIC50 of C=C1C(=O)N[C@@H](C)C(=O)N(C)[C@@H](C)C(=O)N[C@@H]([C@H](OC(=O)[C@@H](NC(C)=O)[C@H](O)C(C)C)C(C)C)C(=O)N(C)[C@@H]([C@@H](C)OC)C(=O)O[C@@H](C)[C@H](NC(C)=O)C(=O)O[C@H](Cc2ccccc2)C(=O)N1C .
[reply] < 4.30
